# experimental-system: CYP3A4 (Homo sapiens, UniProt P08684)
# Sequence (P08684 whole entry): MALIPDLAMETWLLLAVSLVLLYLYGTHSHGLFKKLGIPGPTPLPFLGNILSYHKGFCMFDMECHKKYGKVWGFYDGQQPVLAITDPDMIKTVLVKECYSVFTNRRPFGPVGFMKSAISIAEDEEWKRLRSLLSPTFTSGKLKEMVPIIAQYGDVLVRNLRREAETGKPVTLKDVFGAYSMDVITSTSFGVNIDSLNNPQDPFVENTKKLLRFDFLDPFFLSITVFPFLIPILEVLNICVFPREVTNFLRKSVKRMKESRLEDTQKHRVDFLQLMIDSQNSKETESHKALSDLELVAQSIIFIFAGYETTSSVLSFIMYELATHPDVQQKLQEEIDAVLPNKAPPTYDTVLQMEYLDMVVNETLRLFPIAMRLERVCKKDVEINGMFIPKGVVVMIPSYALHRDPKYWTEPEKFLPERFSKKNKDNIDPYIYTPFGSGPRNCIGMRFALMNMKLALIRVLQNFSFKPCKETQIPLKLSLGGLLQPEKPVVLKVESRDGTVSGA
# protocol: Inhibition of CYP3A4 in human liver microsomes using midazolam as substrate at 10 uM preincubated for 5 mins followed by substrate addition and measured after 20 mins by LC-MS analysis relative to control
# Format: ADME, Microsome
# cond: probe midazolam, time 25 min
property-name: inhibition at 20 min, 10 µM (%)
Write the number in % without appending the unit.

Problem: Fill in: inhibition at 20 min, 10 µM of O=C(Nc1ccc(N2CCC3(CCC3)CC2)c(C(F)(F)F)c1)c1ccc(CN2C[C@@H]3C[C@H]2CO3)nc1 is ___
Result: 4.9

----------
# Test system: Ebolavirus
# protocol: Binding affinity to Ebolavirus glycoprotein by SPR analysis
The source made the active and inactive calls. No cut-off for these calls is given here.
property-name: Activity

>  <input-smiles>
CC1CCN(c2ccc(NC(=O)c3ccc(CN4CCOCC4)cc3)cc2C(F)(F)F)CC1

>  <result>
Active

$$$$
>  <input-smiles>
O=C(Nc1ccc(C23CC4CC(CC(C4)C2)C3)cc1)c1ccc(CN2C[C@@H]3C[C@H]2CO3)cc1

>  <result>
Active

$$$$
>  <input-smiles>
O=C(Nc1ccc(C23CC4CC(CC(C4)C2)C3)cc1)c1ccc(CN2C[C@@H]3C[C@H]2CO3)nc1

>  <result>
Active

$$$$
>  <input-smiles>
CC1CCN(c2ccc(NC(=O)c3ccc(CN4C[C@@H]5C[C@H]4CO5)nc3)cc2C(F)(F)F)CC1

>  <result>
Active

$$$$
